- ASSAY_COMMENT: Evaluation of conversion rate to active form in buffer solution (Experimental Example 1)
- Type: physicochemical
- STATED_CONDITIONS: pH6.5, 0.5 hr, 37° C., 25 umol/L in buffer solution
Structures can show the parent of a compound that is named as a salt.
Decide using Production rate of Alvocidib alone. Strictly below 10%: T. Equal to or above 10%: F.

Qu. A record lists CCCN(CC1CCCCN1)C(=O)Oc1cc(O)c2c(=O)cc(-c3ccccc3Cl)oc2c1[C@H]1CCN(C)C[C@H]1O (stereo partly shown) [Example 9] . Is its Production rate of Alvocidib below 10%?
Ans. F

Qu. Lab note: confirm whether the reported Production rate of Alvocidib for this compound is below 10%, equality not counting. compound: CCCN(C[C@@H]1CCCCN1)C(=O)Oc1cc(O)c2c(=O)cc(-c3ccccc3Cl)oc2c1[C@H]1CCN(C)C[C@H]1O [Example 5]
Ans. T

Qu. Could you please tell me whether Production rate of Alvocidib recorded for CN1CC[C@H](c2c(OC(=O)N(C)C[C@@H]3CCCCN3)cc(O)c3c(=O)cc(-c4ccccc4Cl)oc23)[C@H](O)C1 [Example 3] is less than 10%?
Ans. F

Qu. Production rate of Alvocidib strictly < 10% for this compound? CCNC(=O)Oc1cc(O)c2c(=O)cc(-c3ccccc3Cl)oc2c1[C@H]1CCN(C)C[C@H]1O [Comparative Example 1, reference compound]
Ans. F

Qu. Lab note: Production rate of Alvocidib threshold 10%. Does this compound come in strictly under it? CN1CC[C@H](c2c(OC(=O)N(C)C[C@H]3CCCCN3)cc(O)c3c(=O)cc(-c4ccccc4Cl)oc23)[C@H](O)C1 [Example 4]
Ans. T

Qu. Is it true that Production rate of Alvocidib reported for CC(C)N(CC1CCCCN1)C(=O)Oc1cc(O)c2c(=O)cc(-c3ccccc3Cl)oc2c1[C@H]1CCN(C)C[C@H]1O (stereo partly shown) [Example 10] is less than 10%?
Ans. F

Qu. Lab log: compare recorded Production rate of Alvocidib with 10%; is it strictly lower for CN1CC[C@H](c2c(OC(=O)N(CCC(F)(F)F)CC3CCCCN3)cc(O)c3c(=O)cc(-c4ccccc4Cl)oc23)[C@H](O)C1 (stereo partly shown) [Example 13] ?
Ans. F

Qu. For this compound, is Production rate of Alvocidib lower than 10%? CCN(C[C@H]1CCCCN1)C(=O)Oc1cc(O)c2c(=O)cc(-c3ccccc3Cl)oc2c1[C@H]1CCN(C)C[C@H]1O [Example 2]
Ans. T

Qu. Field: below-cutoff. Rule: recorded Production rate of Alvocidib strictly less than 10%. Subject: CN1CC[C@H](c2c(OC(=O)N(Cc3ccccc3)CC3CCCCN3)cc(O)c3c(=O)cc(-c4ccccc4Cl)oc23)[C@H](O)C1 (stereo partly shown) [Example 15]
Ans. F

Qu. Bench note: check whether CCN(CC1CCCCN1)C(=O)Oc1cc(O)c2c(=O)cc(-c3ccccc3Cl)oc2c1[C@H]1CCN(C)C[C@H]1O (stereo partly shown) [Example 7, dihydrochloride] shows Production rate of Alvocidib below 10%
Ans. F

Qu. hey, is Production rate of Alvocidib for COCCN(CC1CCCCN1)C(=O)Oc1cc(O)c2c(=O)cc(-c3ccccc3Cl)oc2c1[C@H]1CCN(C)C[C@H]1O (stereo partly shown) [Example 12] lower than 10% or not?
Ans. F

Qu. Could you please tell me whether Production rate of Alvocidib recorded for CCN(CCC1CCCCN1)C(=O)Oc1cc(O)c2c(=O)cc(-c3ccccc3Cl)oc2c1[C@H]1CCN(C)C[C@H]1O (stereo partly shown) [Example 16] is less than 10%?
Ans. F

---

- ASSAY_COMMENT: Evaluation of conversion rate to active form in buffer solution (Experimental Example 1)
- Type: physicochemical
- STATED_CONDITIONS: pH5.5, 3 hr
- Method: For Examples 1 to 16 and Comparative Examples 1 to 14, the attrition rate of the test compound and the conversion rate of the test compound to Alvocidib in a buffer solution were calculated by the following method. Examples 1 to 16 and Comparative Examples 1 to 14 were each left in buffer solutions adjusted to pH 5.0, 5.5, 6.0, 6.5, 7.0 and 7.4, respectively, at a concentration of 25 umol/L at 37° C. […]
PARAMETER_MEASURED: Residual rate (%)
Reply numerically in %, unit not repeated.

Qu. // lookup Residual rate for CNC(=O)Oc1cc(O)c2c(=O)cc(-c3ccccc3Cl)oc2c1[C@H]1CCN(C)C[C@H]1O [Comparative Example 2, reference compound]
Ans. 0.0

Qu. Would you mind telling me what Residual rate value was observed for CNC(=O)O[C@@H]1CN(C)CC[C@@H]1c1c(O)cc(O)c2c(=O)cc(-c3ccccc3Cl)oc12 [Comparative Example 5, reference compound] ?
Ans. 93.6

Qu. Which value of Residual rate has been reported for CCOC(=O)O[C@@H]1CN(C)CC[C@@H]1c1c(O)cc(O)c2c(=O)cc(-c3ccccc3Cl)oc12 [Comparative Example 3, reference compound] in the records?
Ans. 90.7

Qu. Entry CN1CC[C@H](c2c(O)cc(O)c3c(=O)cc(-c4ccccc4Cl)oc23)[C@H](OC(=O)CN)C1 [Comparative Example 8, reference compound] has what Residual rate?
Ans. 67.6

Qu. Give its Residual rate value. Item: CN1CC[C@H](c2c(O)cc(O)c3c(=O)cc(-c4ccccc4Cl)oc23)[C@H](OC(=O)[C@@H](N)CO)C1 [Comparative Example 9, reference compound]
Ans. 74.2

---

- ASSAY_COMMENT: Evaluation of conversion rate to active form in buffer solution (Experimental Example 1)
- Format: physicochemical
- STATED_CONDITIONS: pH6.5, 0.5 hr, 37° C., 25 umol/L in buffer solution
PARAMETER_MEASURED: Production rate of Alvocidib (%)
State the answer as a number, implicitly in %.

Qu. # get_value(readout='Production rate of Alvocidib', item= CCN(C[C@@H]1CCCCN1)C(=O)Oc1cc(O)c2c(=O)cc(-c3ccccc3Cl)oc2c1[C@H]1CCN(C)C[C@H]1O [Example 1, ditrifluoroacetate] )
Ans. 8.7

Qu. Report Production rate of Alvocidib for CN1CC[C@H](c2c(OC(=O)N(CCCC(F)(F)F)CC3CCCCN3)cc(O)c3c(=O)cc(-c4ccccc4Cl)oc23)[C@H](O)C1 (stereo partly shown) [Example 14] please.
Ans. 45.8

Qu. Item CN1CC[C@H](c2c(OC(=O)N(CCF)CC3CCCCN3)cc(O)c3c(=O)cc(-c4ccccc4Cl)oc23)[C@H](O)C1 (stereo partly shown) [Example 11] has what recorded Production rate of Alvocidib?
Ans. 23.6

Qu. Which Production rate of Alvocidib value is on record for CN1CC[C@H](c2c(OC(=O)N(C)CC3CCCCN3)cc(O)c3c(=O)cc(-c4ccccc4Cl)oc23)[C@H](O)C1 (stereo partly shown) [Example 8] ?
Ans. 11.2

---

- ASSAY_COMMENT: Evaluation of conversion rate to active form in buffer solution (Experimental Example 1)
- Assay type: physicochemical
- STATED_CONDITIONS: pH6.0, 2 hr, 37° C., 25 umol/L in buffer solution
Counter-ions that a name gives are not always drawn.
Decide using Production rate of Alvocidib alone. Strictly below 20%: Met. Equal to or above 20%: Not met.

Qu. Production rate of Alvocidib under 20%? Item: CC(C)N(CC1CCCCN1)C(=O)Oc1cc(O)c2c(=O)cc(-c3ccccc3Cl)oc2c1[C@H]1CCN(C)C[C@H]1O (some centres unmarked)
Ans. Met

Qu. Field: below-cutoff. Rule: recorded Production rate of Alvocidib strictly less than 20%. Subject: CCN(CC1CCCCN1)C(=O)Oc1cc(O)c2c(=O)cc(-c3ccccc3Cl)oc2c1[C@H]1CCN(C)C[C@H]1O (some centres unmarked) [Example 7, dihydrochloride]
Ans. Met

Qu. Hi there! Is Production rate of Alvocidib for CCCN(CC1CCCCN1)C(=O)Oc1cc(O)c2c(=O)cc(-c3ccccc3Cl)oc2c1[C@H]1CCN(C)C[C@H]1O (some centres unmarked) below 20%, do you know?
Ans. Met

Qu. Confirm or reject: Production rate of Alvocidib of CCNC(=O)Oc1cc(O)c2c(=O)cc(-c3ccccc3Cl)oc2c1[C@H]1CCN(C)C[C@H]1O [Comparative Example 1, reference compound] lies strictly below 20%
Ans. Not met

Qu. Criterion: Production rate of Alvocidib strictly below 20%. Is it met by CCN(C[C@@H]1CCCCN1)C(=O)Oc1cc(O)c2c(=O)cc(-c3ccccc3Cl)oc2c1[C@H]1CCN(C)C[C@H]1O [Example 1, ditrifluoroacetate] ?
Ans. Met

Qu. Just wondering, is Production rate of Alvocidib of "CN1CC[C@H](c2c(OC(=O)N(C)C[C@@H]3CCCCN3)cc(O)c3c(=O)cc(-c4ccccc4Cl)oc23)[C@H](O)C1" below 20%?
Ans. Met

Qu. Hello, is Production rate of Alvocidib of the following compound strictly smaller than 20%? CN1CC[C@H](c2c(OC(=O)N(CCC(F)(F)F)CC3CCCCN3)cc(O)c3c(=O)cc(-c4ccccc4Cl)oc23)[C@H](O)C1 (some centres unmarked)
Ans. Not met

Qu. Consider CN1CC[C@H](c2c(OC(=O)N(CCCC(F)(F)F)CC3CCCCN3)cc(O)c3c(=O)cc(-c4ccccc4Cl)oc23)[C@H](O)C1 (some centres unmarked) . Does its Production rate of Alvocidib lie strictly below 20%?
Ans. Not met

Qu. Confirm or reject: Production rate of Alvocidib of "CCN(C[C@H]1CCCCN1)C(=O)Oc1cc(O)c2c(=O)cc(-c3ccccc3Cl)oc2c1[C@H]1CCN(C)C[C@H]1O" lies strictly below 20%
Ans. Met

Qu. In plain terms, does "CCCN(C[C@@H]1CCCCN1)C(=O)Oc1cc(O)c2c(=O)cc(-c3ccccc3Cl)oc2c1[C@H]1CCN(C)C[C@H]1O" come in under 20% for Production rate of Alvocidib?
Ans. Met

Qu. In the record for CN1CC[C@H](c2c(OC(=O)N(Cc3ccccc3)CC3CCCCN3)cc(O)c3c(=O)cc(-c4ccccc4Cl)oc23)[C@H](O)C1 (some centres unmarked) , is Production rate of Alvocidib less than 20%?
Ans. Not met

Qu. Criterion: Production rate of Alvocidib strictly below 20%. Is it met by CN1CC[C@H](c2c(OC(=O)N(C)CC3CCCCN3)cc(O)c3c(=O)cc(-c4ccccc4Cl)oc23)[C@H](O)C1 (some centres unmarked) ?
Ans. Met

Qu. Criterion: Production rate of Alvocidib strictly below 20%. Is it met by CN1CC[C@H](c2c(OC(=O)N(CCF)CC3CCCCN3)cc(O)c3c(=O)cc(-c4ccccc4Cl)oc23)[C@H](O)C1 (some centres unmarked) ?
Ans. Not met

Qu. Is Production rate of Alvocidib of CCN(CCC1CCCCN1)C(=O)Oc1cc(O)c2c(=O)cc(-c3ccccc3Cl)oc2c1[C@H]1CCN(C)C[C@H]1O (some centres unmarked) strictly below 20%?
Ans. Not met

Qu. # TODO verify Production rate of Alvocidib < 20% strictly for this compound: "CN1CC[C@H](c2c(OC(=O)N(C)C[C@H]3CCCCN3)cc(O)c3c(=O)cc(-c4ccccc4Cl)oc23)[C@H](O)C1"
Ans. Met

Qu. API: query returns whether the compound falls strictly under 20% in Production rate of Alvocidib. Query: COCCN(CC1CCCCN1)C(=O)Oc1cc(O)c2c(=O)cc(-c3ccccc3Cl)oc2c1[C@H]1CCN(C)C[C@H]1O (some centres unmarked)
Ans. Not met

Qu. API: query returns whether the compound falls strictly under 20% in Production rate of Alvocidib. Query: "CCCN(C[C@H]1CCCCN1)C(=O)Oc1cc(O)c2c(=O)cc(-c3ccccc3Cl)oc2c1[C@H]1CCN(C)C[C@H]1O"
Ans. Met
